- assay-method-text: Partition coefficient log Kow (n-octanol/water), shake-flask method
- Type: physicochemical
- settings: mean ± SD (n = 3 experiments)
- Procedure: Before the partition coefficient is determined, the two solvents are mutually saturated at the temperature of the experiment. To do this, it is practical to shake two large stock bottles, one containing n-octanol and a sufficient quantity of water, and the other containing water and a sufficient quantity of n-octanol, for 24 hours on a mechanical shaker and then to let them stand long enough to allow the phases to separate. […]
Below is a list of entries, each paired with its recorded log Kow value.
Lab note: jot down the number only; don't add units.

Below: 5 molecules and their reported log Kow.
# smiles-input, log Kow
measured = [
    ("Cc1ccc(N2C(=O)C(=O)N([C@H](C)c3nc4ccc(F)cc4s3)C2=O)cc1Cl", 0.50),
    ("C[C@H](c1nc2ccc(F)cc2s1)N1C(=O)C(=O)N(Cc2ccccc2)C1=O", 1.06),
    ("C[C@H](c1nc2ccc(F)cc2s1)N1C(=O)C(=O)N(c2ccc(C#N)cc2)C1=O", 0.41),
    ("CC(C)c1cccc(C(C)C)c1N1C(=O)C(=O)N([C@H](C)c2nc3ccc(F)cc3s2)C1=O", 0.98),
    ("COc1ccc(N2C(=O)C(=O)N([C@H](C)c3nc4ccc(F)cc4s3)C2=O)cc1", 0.69),
]

In: Would you mind telling me what log Kow value was observed for `C[C@H](c1nc2ccc(F)cc2s1)N1C(=O)C(=O)N(c2cccc(C(F)(F)F)c2)C1=O` ?
Out: 1.12

In: Would you mind telling me what log Kow value was observed for `C[C@H](c1nc2ccc(F)cc2s1)N1C(=O)C(=O)N(c2cc(Cl)cc(Cl)c2)C1=O` ?
Out: 0.77

* * *

- target-desc: butyrylcholinesterase from equine serum (Equus caballus)
- Construct: butyrylcholinesterase isolated from equine serum; purchased Sigma; host or cells: equine serum
- Sequence (P81908 whole entry): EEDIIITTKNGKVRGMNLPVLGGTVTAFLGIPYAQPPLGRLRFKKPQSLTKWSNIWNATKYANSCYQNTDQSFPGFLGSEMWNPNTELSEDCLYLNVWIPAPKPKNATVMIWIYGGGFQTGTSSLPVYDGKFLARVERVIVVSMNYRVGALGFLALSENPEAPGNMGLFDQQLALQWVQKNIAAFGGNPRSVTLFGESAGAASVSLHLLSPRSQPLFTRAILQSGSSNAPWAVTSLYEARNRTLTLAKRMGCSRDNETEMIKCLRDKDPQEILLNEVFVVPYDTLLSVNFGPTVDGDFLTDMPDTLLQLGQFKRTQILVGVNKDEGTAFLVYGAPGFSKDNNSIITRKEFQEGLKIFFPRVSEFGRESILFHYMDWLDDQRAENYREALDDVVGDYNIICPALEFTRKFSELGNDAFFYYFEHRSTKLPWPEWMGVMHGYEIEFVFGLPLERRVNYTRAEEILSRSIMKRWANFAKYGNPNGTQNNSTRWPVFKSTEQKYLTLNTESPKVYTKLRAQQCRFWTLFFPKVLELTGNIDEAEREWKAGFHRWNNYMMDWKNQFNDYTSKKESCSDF
- assay-method-text: biochemical
quantity: IC50 (µM)
Reply with just the number (in µM).

Below: 2 molecules and their reported IC50.
# smiles-input, IC50 (µM)
data = [
    ("C[C@H](c1nc2ccc(F)cc2s1)N1C(=O)C(=O)N(c2ccc(Cl)cc2)C1=O", 25.7),
    ("C[C@H](c1nc2ccc(F)cc2s1)N1C(=O)C(=O)N(c2cc(Cl)cc(Cl)c2)C1=O", 29.5),
]

Now let's try a different one.
In: Would you mind telling me what IC50 value was observed for `Cc1ccc(N2C(=O)C(=O)N([C@H](C)c3nc4ccc(F)cc4s3)C2=O)cc1Cl` ?
Out: 17

* * *

Below is a list of entries, each paired with its recorded IC50 value.
- target-desc: butyrylcholinesterase from equine serum (Equus caballus)
- Construct: butyrylcholinesterase isolated from equine serum; purchased Sigma; host or cells: equine serum
- assay-method-text: biochemical
- settings: equine serum BChE; Ellman's method; mean ± SD (n = 3 experiments); read-out: BChE IC50
Reply with just the number (in µM).

Below: 5 compounds and their reported IC50.
# smiles-input, IC50 (µM)
records = [
    ("C[C@H](c1nc2ccc(F)cc2s1)N1C(=O)C(=O)N(Cc2ccccc2)C1=O", 12.6),
    ("COc1ccc(N2C(=O)C(=O)N([C@H](C)c3nc4ccc(F)cc4s3)C2=O)cc1", 13.2),
    ("CC(C)c1ccc(N2C(=O)C(=O)N([C@H](C)c3nc4ccc(F)cc4s3)C2=O)cc1", 1.66),
    ("C[C@H](c1nc2ccc(F)cc2s1)N1C(=O)C(=O)N(c2cccc(C(F)(F)F)c2)C1=O", 17.4),
    ("C[C@H](c1nc2ccc(F)cc2s1)N1C(=O)C(=O)N(c2ccc(C#N)cc2)C1=O", 10.5),
]

In: Would you mind telling me what IC50 value was observed for `C[C@H](c1nc2ccc(F)cc2s1)N1C(=O)C(=O)N(c2ccccc2)C1=O` ?
Out: 14.5

In: Would you mind telling me what IC50 value was observed for `CC(C)c1cccc(C(C)C)c1N1C(=O)C(=O)N([C@H](C)c2nc3ccc(F)cc3s2)C1=O` ?
Out: 30.2

* * *

- target-desc: acetylcholinesterase from electric eel (Electrophorus electricus, UniProt O42275)
- Construct: purchased Sigma
- Sequence (O42275 24-633): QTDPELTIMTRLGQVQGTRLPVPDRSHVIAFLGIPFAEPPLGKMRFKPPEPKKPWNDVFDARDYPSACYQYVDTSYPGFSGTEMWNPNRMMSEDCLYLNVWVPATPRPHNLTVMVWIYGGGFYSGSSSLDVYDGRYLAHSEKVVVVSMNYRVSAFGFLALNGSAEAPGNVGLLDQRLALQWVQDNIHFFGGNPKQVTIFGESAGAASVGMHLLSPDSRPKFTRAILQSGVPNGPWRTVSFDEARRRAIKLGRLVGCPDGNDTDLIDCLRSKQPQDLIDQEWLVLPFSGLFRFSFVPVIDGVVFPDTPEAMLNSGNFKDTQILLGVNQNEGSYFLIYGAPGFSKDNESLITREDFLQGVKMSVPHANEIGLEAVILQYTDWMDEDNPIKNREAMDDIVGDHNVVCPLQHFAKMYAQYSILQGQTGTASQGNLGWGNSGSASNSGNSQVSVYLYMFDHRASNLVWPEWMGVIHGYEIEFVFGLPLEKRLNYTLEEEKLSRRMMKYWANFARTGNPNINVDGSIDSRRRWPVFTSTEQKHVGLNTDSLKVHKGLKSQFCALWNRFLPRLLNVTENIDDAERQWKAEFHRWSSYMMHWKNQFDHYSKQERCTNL
- assay-method-text: biochemical
- settings: electric eel AChE; Ellman's method; mean ± SD (n = 3 experiments); read-out: AChE IC50
Below is a list of entries, each paired with its recorded IC50 value.
Reply with just the number (in µM).

Below: 5 molecules and their reported IC50.
# molecule, units-text, reported-value
data = [
    ("CC(C)c1cccc(C(C)C)c1N1C(=O)C(=O)N([C@H](C)c2nc3ccc(F)cc3s2)C1=O [Compound 3g]", "µM", 15.1),
    ("COc1ccc(N2C(=O)C(=O)N([C@H](C)c3nc4ccc(F)cc4s3)C2=O)cc1 [Compound 3c]", "µM", 22.4),
    ("C[C@H](c1nc2ccc(F)cc2s1)N1C(=O)C(=O)N(c2ccccc2)C1=O [Compound 3a]", "µM", 21.4),
    ("C[C@H](c1nc2ccc(F)cc2s1)N1C(=O)C(=O)N(c2ccc(C#N)cc2)C1=O [Compound 3f]", "µM", 19.1),
    ("C[C@H](c1nc2ccc(F)cc2s1)N1C(=O)C(=O)N(c2cccc(C(F)(F)F)c2)C1=O [Compound 3b]", "µM", 23.4),
]

In: Would you mind telling me what IC50 value was observed for C[C@H](c1nc2ccc(F)cc2s1)N1C(=O)C(=O)N(Cc2ccccc2)C1=O [Compound 3k] ?
Out: 18.6

In: Would you mind telling me what IC50 value was observed for CC(C)c1ccc(N2C(=O)C(=O)N([C@H](C)c3nc4ccc(F)cc4s3)C2=O)cc1 [Compound 3d] ?
Out: 16.6

* * *

- target-desc: acetylcholinesterase from electric eel (Electrophorus electricus)
- Construct: purchased Sigma
- assay-method-text: biochemical
Below is a list of entries, each paired with its recorded pIC50 value.
Give only the number. pIC50 is defined as minus log10 of concentration in molar units.

# smiles-input, reported-value
rows = [
    ("C[C@H](c1nc2ccc(F)cc2s1)N1C(=O)C(=O)N(c2cc(Cl)cc(Cl)c2)C1=O", 4.77),
    ("C[C@H](c1nc2ccc(F)cc2s1)N1C(=O)C(=O)N(c2ccc(Cl)cc2)C1=O", 4.86),
]

Now let's try a different one.
In: Would you mind telling me what pIC50 value was observed for `Cc1ccc(N2C(=O)C(=O)N([C@H](C)c3nc4ccc(F)cc4s3)C2=O)cc1Cl` ?
Out: 4.81

All values here come from paper PMC6264296.
